From: paper PMC12738692

Target: human ASIC3 (Homo sapiens)
Construct: CHO cells stably expressing human ASIC3 (NM_004769.1)
Sequence (Q9UHC3 whole entry): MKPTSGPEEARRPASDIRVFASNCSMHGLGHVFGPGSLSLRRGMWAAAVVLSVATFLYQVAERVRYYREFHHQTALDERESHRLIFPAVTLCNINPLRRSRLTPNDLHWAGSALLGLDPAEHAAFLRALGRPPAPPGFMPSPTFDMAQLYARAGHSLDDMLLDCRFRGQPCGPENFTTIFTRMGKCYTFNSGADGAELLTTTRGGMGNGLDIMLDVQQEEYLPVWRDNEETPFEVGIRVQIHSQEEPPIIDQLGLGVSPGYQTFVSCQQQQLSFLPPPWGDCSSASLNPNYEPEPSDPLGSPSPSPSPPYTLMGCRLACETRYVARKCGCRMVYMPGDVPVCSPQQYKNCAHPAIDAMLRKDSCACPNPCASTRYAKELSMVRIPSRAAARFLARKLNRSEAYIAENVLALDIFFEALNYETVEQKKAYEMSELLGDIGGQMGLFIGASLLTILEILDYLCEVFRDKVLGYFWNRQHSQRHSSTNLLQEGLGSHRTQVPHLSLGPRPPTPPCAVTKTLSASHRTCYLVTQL
Assay: cell-based
Where a SMILES comes first, the peptide text is derived from it. [ ]: non-standard residue; d: D form. Arg(Me2a) = CN(C)C(=N)NCCC[C@H](N)C(=O)O
PARAMETER MEASURED: pEC50
pEC50 here is simply -log10 of the concentration when that concentration is written in mol/L.

stdin: Give a short answer stating reported pEC50 for CN(C)C(=N)NCCC[C@H](NC(=O)[C@@H]1CCCN1C(=O)[C@H](CCCNC(=N)N)NC(=O)[C@@H](N)Cc1c[nH]c2ccccc12)C(=O)N[C@@H](Cc1ccccc1)C(N)=O [WRP{ADMA}Fa] (H-WRP[Arg(Me2a)]F-NH2) .
stdout: 4.67
